# systemUnderTest: human IL-21R expressed on cells (human, UniProt Q9HBE5 20-538)
# Sequence (Q9HBE5 20-538 limits assumed): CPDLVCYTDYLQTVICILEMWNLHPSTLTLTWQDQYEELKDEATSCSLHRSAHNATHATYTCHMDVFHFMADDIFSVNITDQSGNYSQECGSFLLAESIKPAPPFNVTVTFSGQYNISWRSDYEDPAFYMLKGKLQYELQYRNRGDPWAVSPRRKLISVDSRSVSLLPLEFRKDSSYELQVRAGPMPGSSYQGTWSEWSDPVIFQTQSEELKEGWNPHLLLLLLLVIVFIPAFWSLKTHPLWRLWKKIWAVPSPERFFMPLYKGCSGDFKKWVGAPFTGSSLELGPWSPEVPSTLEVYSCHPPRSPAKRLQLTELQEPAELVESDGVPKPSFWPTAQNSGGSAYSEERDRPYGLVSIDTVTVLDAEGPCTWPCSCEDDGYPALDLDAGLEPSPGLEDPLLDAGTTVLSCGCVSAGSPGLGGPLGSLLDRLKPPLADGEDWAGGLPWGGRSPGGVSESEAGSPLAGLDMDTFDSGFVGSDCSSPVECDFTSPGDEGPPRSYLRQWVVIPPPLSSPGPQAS
# measurementNotes: cell-based or functional assay
Each entry below carries its recorded IC50, Human IL-21R-BaF3 Neutralization Assay.
Please reply with the bare figure in nM and do not write the unit itself.

A selection of reference data follows.
scFv L24 (scFv) scFv: QVQLQESGPGLVKTSETLSLTCAVSGYSISSGYYWGWIRQPPGKGLEWIGSISHTGNTYYNPPLKSRVTISVDTSKNQFSLKLSSVTAADTAVYYCARGGGISRPEYWGKGTLVTVSSGGGGSGGGGSGGGGSALSSELTQDPPVSVALGQTVTLTCQGDSLRTYYASWYQQKSGQAPILLLYGKHKRPSGIPDRFSGSTSGDTASLTITGAQAEDEADYYCIARSNKGNPHVLFGGGTQLTVL has a reported IC50, Human IL-21R-BaF3 Neutralization Assay of 2.4

scFv L3 (scFv) scFv: QVQLQESGPGLVKTSETLSLTCAVSGYSISSGYYWGWIRQPPGKGLEWIGSISHTGNTYYNPPLKSRVTISVDTSKNQFSLKLSSVTAADTAVYYCARGGGISRPEYWGKGTLVTVSSGGGGSGGGGSGGGGSALSSELTQDPPVSVALGQTVTLTCQGDSLRTYYASWYQQKSGQAPILLLYGKHKRPSGIPDRFSGSTSGDTASLTITGAQAEDEADYYCVSRAVVGNPHVLFGGGTQLTVL has a reported IC50, Human IL-21R-BaF3 Neutralization Assay of 27.6

scFv L16 (scFv) scFv: QVQLQESGPGLVKTSETLSLTCAVSGYSISSGYYWGWIRQPPGKGLEWIGSISHTGNTYYNPPLKSRVTISVDTSKNQFSLKLSSVTAADTAVYYCARGGGISRPEYWGKGTLVTVSSGGGGSGGGGSGGGGSALSSELTQDPPVSVALGQTVTLTCQGDSLRTYYASWYQQKSGQAPILLLYGKHKRPSGIPDRFSGSTSGDTASLTITGAQAEDEADYYCVTRSAKGNPHVLFGGGTQLTVL has a reported IC50, Human IL-21R-BaF3 Neutralization Assay of 3.7

scFv L19 (scFv) scFv: QVQLQESGPGLVKTSETLSLTCAVSGYSISSGYYWGWIRQPPGKGLEWIGSISHTGNTYYNPPLKSRVTISVDTSKNQFSLKLSSVTAADTAVYYCARGGGISRPEYWGKGTLVTVSSGGGGSGGGGSGGGGSALSSELTQDPPVSVALGQTVTLTCQGDSLRTYYASWYQQKSGQAPILLLYGKHKRPSGIPDRFSGSTSGDTASLTITGAQAEDEADYYCVARAVRGNPHVLFGGGTQLTVL has a reported IC50, Human IL-21R-BaF3 Neutralization Assay of 4.5

Further cases:
scFv H3 (scFv) scFv: QVQLQESGPGLVKTSETLSLTCAVSGYSISSGYYWGWIRQPPGKGLEWIGSISHTGNTYYNPPLKSRVTISVDTSKNQFSLKLSSVTAADTAVYYCARFMGFGRPEYWGKGTLVTVSSGGGGSGGGGSGGGGSALSSELTQDPPVSVALGQTVTLTCQGDSLRTYYASWYQQKSGQAPILLLYGKHKRPSGIPDRFSGSTSGDTASLTITGAQAEDEADYYCNSRDSSGNPHVLFGGGTQLTVL has a reported IC50, Human IL-21R-BaF3 Neutralization Assay of 7.7
